What pIC50 was measured for each of the following?
target: Human immunodeficiency virus type 1 integrase (Human immunodeficiency virus 1, UniProt Q7ZJM1)
Sequence (Q7ZJM1 whole entry): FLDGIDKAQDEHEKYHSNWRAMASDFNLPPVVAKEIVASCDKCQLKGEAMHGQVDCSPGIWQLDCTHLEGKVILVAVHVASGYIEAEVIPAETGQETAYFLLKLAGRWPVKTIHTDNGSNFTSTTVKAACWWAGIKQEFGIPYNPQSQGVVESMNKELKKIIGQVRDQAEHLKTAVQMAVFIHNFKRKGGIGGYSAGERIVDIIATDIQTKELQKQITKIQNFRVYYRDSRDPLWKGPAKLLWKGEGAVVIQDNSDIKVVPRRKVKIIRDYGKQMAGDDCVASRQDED
Note on units: pIC50 is unitless, being -log10 of a concentration expressed in mol/L.

Quick one: pIC50 of O=C(/C=C(\O)c1c[nH]c2ccc(Cl)cc12)c1nc[nH]n1 ?
5.70

Please do the same for COc1ccc(Cc2ccccc2)cc1/C(O)=C/C(=O)C(=O)O as well.
7.00

Please do the same for O=C(O)C(=O)/C=C(\O)c1ccnc2ccccc12 as well.
4.00

Please do the same for O=C(O)C(=O)/C=C(\O)c1ccc(Cc2ccccc2)s1 as well.
6.30

Please do the same for O=C(O)C(=O)/C=C(\O)c1ccc(Oc2ccccc2)cc1 as well.
4.94

Please do the same for CCC(=O)C(=O)/C=C(\O)c1c[nH]c2ccc(Cl)cc12 as well.
5.16

Please do the same for O=C(O)C(=O)/C=C(\O)c1ccsc1Cc1ccccc1 as well.
6.74

Please do the same for O=C(O)C(=O)/C=C(\O)c1cccc(Cc2ccccc2)c1 as well.
8.00

Please do the same for O=C(O)C(=O)/C=C(\O)c1cccn1Cc1ccccc1 as well.
6.66

Please do the same for CCCCOC(=O)C(=O)/C=C(\O)c1cccn1Cc1ccc(F)cc1 as well.
4.00

Please do the same for COc1ccc(/C(O)=C/C(=O)C(=O)O)cc1Cc1ccccc1 as well.
6.82

Please do the same for O=C(O)C(=O)/C=C(\O)c1cc(OCc2ccccc2)cc(OCc2ccccc2)c1 as well.
7.00

Please do the same for CC(C)OC(=O)C(=O)/C=C(\O)c1cccn1Cc1ccc(F)cc1 as well.
4.00

Please do the same for O=C(O)C(=O)/C=C(\O)c1cccc(Cc2cccc(F)c2)c1 as well.
6.60

Please do the same for O=C(O)C(=O)/C=C(\O)c1cccc(Br)c1 as well.
5.60

Please do the same for COc1cc(Cc2ccccc2)cc(/C(O)=C/C(=O)C(=O)O)c1 as well.
6.85

Please do the same for NC(=O)C(=O)Nc1nc(C(=O)NCc2ccc(F)cc2)c(O)c2ncccc12 as well.
7.40

---

What pIC50 was measured for each of the following?
target: Human immunodeficiency virus type 1 integrase (Human immunodeficiency virus 1); experiment: In vitro concentration required to inhibit the overall HIV-1 integrase strand transfer
Note on units: pIC50 is unitless, being -log10 of a concentration expressed in mol/L.

Quick one: pIC50 of O=C(O)C(=O)/C=C(\O)c1cn(Cc2ccc(F)cc2)c2ccc(Cl)cc12 ?
6.70

Please do the same for CCOC(=O)C(=O)/C=C(\O)c1cn(Cc2ccccc2)c2ccccc12 as well.
6.12

Please do the same for CCOC(=O)C(=O)/C=C(\O)c1cn(Cc2ccccc2)c2ccc(OC)cc12 as well.
6.82

Please do the same for O=C(NCc1ccc(F)cc1)c1nc(N2CCCCS2(=O)=O)c2cccnc2c1O as well.
9.30

Please do the same for COc1ccc2c(c1)c(/C(O)=C/C(=O)C(=O)O)cn2Cc1ccccc1 as well.
7.77

Please do the same for CCOC(=O)C(=O)/C=C(\O)c1cn(Cc2ccc(F)cc2)c2ccccc12 as well.
5.92

Please do the same for CCOC(=O)C(=O)/C=C(\O)c1cn(Cc2ccc(F)cc2)c2ccc(Cl)cc12 as well.
6.41

Please do the same for O=C(O)C(=O)/C=C(\O)c1cn(Cc2ccc(F)cc2)c2ccccc12 as well.
8.70

Please do the same for COc1ccc2c(c1)c(/C(O)=C/C(=O)C(=O)O)cn2Cc1ccc(F)cc1 as well.
7.72

Please do the same for CCOC(=O)C(=O)/C=C(\O)c1cn(Cc2ccccc2)c2ccc(Cl)cc12 as well.
6.66
